target_desc: EPHB2 (UniProt P29323)
Sequence (P29323 whole entry, looked up): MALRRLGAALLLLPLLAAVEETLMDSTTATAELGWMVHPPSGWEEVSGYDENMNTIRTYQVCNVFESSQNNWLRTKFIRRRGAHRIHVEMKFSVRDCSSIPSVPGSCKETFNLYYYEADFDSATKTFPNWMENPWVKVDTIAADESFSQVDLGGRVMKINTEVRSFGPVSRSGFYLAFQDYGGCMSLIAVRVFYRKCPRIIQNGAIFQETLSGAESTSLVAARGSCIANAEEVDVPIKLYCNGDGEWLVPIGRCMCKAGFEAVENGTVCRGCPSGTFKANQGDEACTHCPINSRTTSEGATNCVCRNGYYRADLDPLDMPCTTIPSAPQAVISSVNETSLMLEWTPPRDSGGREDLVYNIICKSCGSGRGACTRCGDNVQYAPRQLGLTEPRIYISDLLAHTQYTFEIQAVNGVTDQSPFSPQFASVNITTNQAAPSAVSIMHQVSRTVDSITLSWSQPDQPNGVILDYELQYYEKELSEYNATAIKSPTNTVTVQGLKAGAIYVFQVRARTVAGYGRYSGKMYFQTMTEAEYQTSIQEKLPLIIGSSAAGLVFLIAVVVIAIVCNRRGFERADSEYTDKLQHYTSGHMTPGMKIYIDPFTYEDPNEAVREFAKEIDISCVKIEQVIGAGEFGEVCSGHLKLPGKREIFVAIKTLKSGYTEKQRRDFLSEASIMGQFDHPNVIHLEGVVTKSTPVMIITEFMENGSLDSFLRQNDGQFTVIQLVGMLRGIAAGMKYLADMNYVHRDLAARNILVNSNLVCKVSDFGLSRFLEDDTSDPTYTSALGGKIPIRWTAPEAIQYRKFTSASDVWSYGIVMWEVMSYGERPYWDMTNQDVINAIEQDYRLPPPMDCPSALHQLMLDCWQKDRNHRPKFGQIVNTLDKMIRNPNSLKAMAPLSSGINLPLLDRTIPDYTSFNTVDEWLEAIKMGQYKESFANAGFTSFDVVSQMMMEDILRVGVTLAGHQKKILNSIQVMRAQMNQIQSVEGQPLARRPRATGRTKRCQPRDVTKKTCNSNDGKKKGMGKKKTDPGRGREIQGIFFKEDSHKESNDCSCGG
assay_details: phosphorylation enrichment, bacterial display (enrichment ratio); higher = better substrate or ligand; peptides without Tyr show the background;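 also: 11-residue human phosphosite peptides and single-mutation variants displayed on the E. coli surface, counted by deep sequencing, each peptide's frequency after selection divided by its frequency in the unselected input library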;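 also: frequency after pTyr selection over input frequency; kinase dosed for 20-30% of maximal phosphorylation in three min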
Readings of phosphorylation enrichment for the listed sequences
Lab note: jot down the number only; don't add units.

// worked examples, phosphorylation enrichment included
>>> test_result("SRASFYRKGGC [ALK_Y1283_Y1278S_YF]")
0.467
>>> test_result("RDSQIYAVDFE [MRPS34_Y34_L33I_YF]")
1.17
>>> test_result("DGQVNYEELVQ [CALM1_Y139_F142L]")
0.826

Form field: reported phosphorylation enrichment of EVKAQYEDIAQ [KRT1_Y358]
0.539

Given CNNFICGGCRG [SPINT2_Y163_Y163C] , state its recorded phosphorylation enrichment.
0.515

Would you mind telling me what phosphorylation enrichment value was observed for MWGSDYVQLSR [MAP3K4_Y582] ?
6.29

Would you mind telling me what phosphorylation enrichment value was observed for LLRFLYFFVCS [SLC34A2_Y109_G106R] ?
0.585

* * *

target_desc: FGFR1 (UniProt P11362)
Sequence (P11362 whole entry, looked up): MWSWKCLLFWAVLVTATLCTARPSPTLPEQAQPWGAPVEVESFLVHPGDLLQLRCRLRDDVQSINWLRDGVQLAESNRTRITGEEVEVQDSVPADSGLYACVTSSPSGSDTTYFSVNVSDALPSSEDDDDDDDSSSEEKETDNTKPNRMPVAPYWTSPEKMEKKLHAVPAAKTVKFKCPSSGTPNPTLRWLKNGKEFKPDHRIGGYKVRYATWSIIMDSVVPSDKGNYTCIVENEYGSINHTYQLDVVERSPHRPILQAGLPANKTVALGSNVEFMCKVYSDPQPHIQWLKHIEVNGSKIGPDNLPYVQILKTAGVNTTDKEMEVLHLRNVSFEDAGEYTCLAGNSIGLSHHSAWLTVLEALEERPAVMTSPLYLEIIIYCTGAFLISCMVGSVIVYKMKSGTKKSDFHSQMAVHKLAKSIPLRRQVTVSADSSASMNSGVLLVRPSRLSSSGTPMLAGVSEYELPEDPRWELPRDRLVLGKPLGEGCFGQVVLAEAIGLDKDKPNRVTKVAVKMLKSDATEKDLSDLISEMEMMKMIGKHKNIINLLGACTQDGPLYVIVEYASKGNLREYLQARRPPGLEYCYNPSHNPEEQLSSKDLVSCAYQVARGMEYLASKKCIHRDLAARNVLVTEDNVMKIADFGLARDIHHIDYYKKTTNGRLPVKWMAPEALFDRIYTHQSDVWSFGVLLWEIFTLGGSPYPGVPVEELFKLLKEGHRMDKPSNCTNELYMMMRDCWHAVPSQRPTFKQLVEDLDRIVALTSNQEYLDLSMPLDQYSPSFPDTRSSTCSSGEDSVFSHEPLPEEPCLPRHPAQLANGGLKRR
assay_details: phosphorylation enrichment, bacterial display (enrichment ratio); higher = better substrate or ligand; peptides without Tyr show the background
observable: phosphorylation enrichment
Enter the number alone.

Answered examples (3):
>>> test_result("SLQAHYDTPRS [DOK7_Y405_R402Q]")
0.352
>>> test_result("GGGGGYNRSSG [FUS_Y232]")
0.304
>>> test_result("GGMTEYELVVV [KRAS_Y4_K5E]")
2.95

Consider the sequence MKKQKYGRIIM [HSD17B4_Y143] and give its measured phosphorylation enrichment.
0.517

* * *

target_desc: Jak2 (UniProt O60674)
Sequence (O60674 whole entry, looked up): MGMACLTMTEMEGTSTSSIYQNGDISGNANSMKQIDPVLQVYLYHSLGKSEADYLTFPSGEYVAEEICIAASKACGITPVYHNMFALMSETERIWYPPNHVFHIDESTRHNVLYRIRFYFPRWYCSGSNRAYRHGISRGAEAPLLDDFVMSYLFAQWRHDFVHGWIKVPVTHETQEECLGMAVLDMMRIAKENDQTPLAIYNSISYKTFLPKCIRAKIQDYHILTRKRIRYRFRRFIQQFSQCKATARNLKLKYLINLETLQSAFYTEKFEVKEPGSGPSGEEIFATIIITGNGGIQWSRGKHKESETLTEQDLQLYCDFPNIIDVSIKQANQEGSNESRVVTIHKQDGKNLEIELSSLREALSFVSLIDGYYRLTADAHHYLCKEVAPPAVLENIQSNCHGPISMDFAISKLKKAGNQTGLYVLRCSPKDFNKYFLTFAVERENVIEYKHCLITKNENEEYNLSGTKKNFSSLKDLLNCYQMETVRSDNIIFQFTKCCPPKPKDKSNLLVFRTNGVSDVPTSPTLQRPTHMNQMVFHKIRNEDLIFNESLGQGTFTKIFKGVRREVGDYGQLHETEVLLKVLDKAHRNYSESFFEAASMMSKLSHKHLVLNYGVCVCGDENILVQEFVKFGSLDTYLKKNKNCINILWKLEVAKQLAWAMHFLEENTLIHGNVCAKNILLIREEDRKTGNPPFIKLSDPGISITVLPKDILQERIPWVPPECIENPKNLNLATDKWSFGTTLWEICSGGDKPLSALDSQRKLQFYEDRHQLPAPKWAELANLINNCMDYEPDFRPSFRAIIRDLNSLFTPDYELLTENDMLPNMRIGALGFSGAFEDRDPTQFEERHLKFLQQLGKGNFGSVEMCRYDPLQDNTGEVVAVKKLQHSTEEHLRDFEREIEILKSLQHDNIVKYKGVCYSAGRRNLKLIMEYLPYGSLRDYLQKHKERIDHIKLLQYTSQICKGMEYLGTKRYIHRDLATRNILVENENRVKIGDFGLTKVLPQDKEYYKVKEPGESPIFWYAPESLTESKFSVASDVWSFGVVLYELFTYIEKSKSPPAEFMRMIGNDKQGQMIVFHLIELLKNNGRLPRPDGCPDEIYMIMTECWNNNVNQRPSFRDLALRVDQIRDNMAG
assay_details: phosphorylation enrichment, bacterial display (enrichment ratio); higher = better substrate or ligand; peptides without Tyr show the background
observable: phosphorylation enrichment
I'd appreciate a reply containing only the number, no unit.

Solved entries (count: 5):
>>> test_result("QDEPTYARSSK [PEAK1_Y616_H611Q]")
0.685
>>> test_result("YCRHNYGVVES [HLA-DRB1_Y112]")
0.681
>>> test_result("VLNKGYRMVVN [HINT1_Y94_G89V]")
0.433
>>> test_result("LKFAIYFEVRE [LAMA2_Y1258_A1261V_YF]")
2.52
>>> test_result("MDDKEYFSVHN [MET_Y1234_Y1230D_YF]")
1.02

Kindly state the measured phosphorylation enrichment obtained for GIVKAYFVHAR [AIPL1_Y267_R270H_YF] with Jak2 (UniProt O60674).
0.73

Give Jak2 (UniProt O60674) phosphorylation enrichment for MARDIYRASFF [ALK_Y1278_YF]
0.608

Form field: phosphorylation enrichment recorded for DRLASNLDKVR [KRT10_Y160_Y160N] with Jak2 (UniProt O60674) (enter value)
0.488

API: value(readout= phosphorylation enrichment, system= Jak2 (UniProt O60674), query= SSMIDYNTLEK [MYOC_Y479_P481T] )
0.904

Entry YPLELYERVRI [PRKCG_Y312_M317I] , system Jak2 (UniProt O60674): what phosphorylation enrichment was measured?
0.895

Which phosphorylation enrichment is reported with Jak2 (UniProt O60674) for this entry: DAKAIYDFTDT [PDK1_Y136] ?
0.994

# returns recorded phosphorylation enrichment (system: Jak2 (UniProt O60674)) for PEVRRYVLPLN [RPE65_Y368]
1.2
